Listed here: items and their measured MFI.
target: DLL3 endogenously expressed on NCI-H82 cells (UniProt Q9NYJ7); experiment: FACS on NCI-H82 cells; antibody 20 nM
Sequence (Q9NYJ7 27-618): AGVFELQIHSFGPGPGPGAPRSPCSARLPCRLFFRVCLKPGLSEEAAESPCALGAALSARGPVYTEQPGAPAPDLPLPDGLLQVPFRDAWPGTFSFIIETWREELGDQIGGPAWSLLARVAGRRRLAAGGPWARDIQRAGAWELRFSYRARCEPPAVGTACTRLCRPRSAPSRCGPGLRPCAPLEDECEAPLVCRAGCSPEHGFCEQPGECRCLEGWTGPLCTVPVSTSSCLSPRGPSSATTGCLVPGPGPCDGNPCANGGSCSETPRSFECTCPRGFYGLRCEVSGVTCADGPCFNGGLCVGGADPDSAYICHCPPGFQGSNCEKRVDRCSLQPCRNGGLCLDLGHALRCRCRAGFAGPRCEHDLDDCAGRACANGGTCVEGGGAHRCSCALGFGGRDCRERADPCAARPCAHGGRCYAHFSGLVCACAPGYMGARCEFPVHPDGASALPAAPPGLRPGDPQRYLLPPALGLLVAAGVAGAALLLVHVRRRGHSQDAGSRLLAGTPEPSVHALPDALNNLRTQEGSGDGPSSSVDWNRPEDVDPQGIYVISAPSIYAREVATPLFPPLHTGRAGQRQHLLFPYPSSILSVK
Answer using only a numeral; do not append any unit.

Hab015VL4VH6a-hFc (scFv, part only; not given: scFv linker and human IgG1 Fc, V domains shown, not shown: another chain or arm of the molecule; a dimerising Fc or GST; small tags and cut ends) VL: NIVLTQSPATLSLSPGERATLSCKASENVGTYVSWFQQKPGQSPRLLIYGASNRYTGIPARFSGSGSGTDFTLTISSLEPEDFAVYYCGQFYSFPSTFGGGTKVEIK VH: EVQLVESGGGLVKPGGSLRLSCAASGITFSNFWMNWVRQAPEKGLEWVGQIRLKSDDYATHYAESVKGRFTISREDSKNTVYLQMNSLKTEDTAVYYCTTGYYFDYWGQGTTVTVSS: 1180

Now look at this entry.
// query Which MFI value belongs to Hab014VL2VH1-hFc (scFv, part only; not given: scFv linker and human IgG1 Fc, V domains shown, not shown: another chain or arm of the molecule; a dimerising Fc or GST; small tags and cut ends) VL: DIQMTQSPSSLSASVGDRVTITCKASEDIYNRLAWYQQKPGKVPKLLISGATSLETGVPSRFSGSGSGKDFTLTISSLQPEDVATYYCQQYWSLPWTFGGGTKVEIK VH: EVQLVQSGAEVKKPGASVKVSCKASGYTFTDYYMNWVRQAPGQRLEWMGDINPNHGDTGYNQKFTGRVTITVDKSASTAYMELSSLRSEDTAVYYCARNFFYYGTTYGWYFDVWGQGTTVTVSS ?
// result 754

The reported measurements were obtained from patent EP4786492A1.
